Each entry below carries its reported MIC.
Tested on: Bacillus subtilis
Experiment: Antimicrobial activity against Bacillus subtilis ATCC 6633
Assay type: functional
Recorded endpoint: MIC

Molecule | Reported
CC/C=C/C/C=C/C/C=C/CCCCCCCC(=O)OCC(CO[C@@H]1O[C@H](CO)[C@@H](O)[C@H](O)[C@H]1O)OC(=O)CCCCCCC/C=C/C/C=C/C/C=C/CC (stereo partly drawn) | > 128 µg/mL
CCCCCCCC/C=C/CCCCCCCC(=O)OCC(CO[C@@H]1O[C@H](CO)[C@@H](O)[C@H](O)[C@H]1O)OC(=O)CCCCCCC/C=C/CCCCCCCC (mixture of isomers) | > 128 µg/mL
CCCCCCCCCCCCCC(=O)OCC(CO[C@@H]1O[C@H](CO)[C@@H](O)[C@H](O)[C@H]1O)OC(=O)CCCCCCCCCCCCC (stereo partly drawn) | > 128 µg/mL
